Target: T1, Zinc-free porcine insulin (porcine, UniProt P01315 88-108; P01315 25-54)
T1 construct: mature; Made zinc-free by dialysis against 0.1% acetic acid and lyophilisation; also called ZFP-insulin
T1 sequence (P01315 88-108 limits assumed, chain 1 of 2): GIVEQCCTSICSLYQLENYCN
T1 sequence (P01315 25-54 limits assumed, chain 2 of 2): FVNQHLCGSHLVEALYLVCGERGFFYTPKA
Assay: ITC, 25 °C, IR αCT peptide 200 µM titrated into ZFP-insulin 20 µM
Experimental: ITC experiments were performed using a VP-ITC isothermal titration calorimeter (MicroCal Inc., USA) with the calorimeter cell held at 25° C. […] Data were analyzed using the instrument's software incorporated within the Origin 7 software (OriginLab, USA) and in all cases fitted as a single-site interaction using the methodologies outlined in the instrument's manual.
pKd: −log10 of the molar value.
property measured: pKd

q: Requested read-out: pKd. Entry: TFEDYLHNVVFVPRPS (Mature IR-A numbering; also called IR αCT; IR-αCT) [IR classical α-chain C-terminal peptide (residues 704-719)]
a: < 3.00
